The measured values listed here are drawn from the RNAGym collection of RNA variant scans (doi:10.7554/elife.80360).

B1: Twister Ribozyme (parent)
chain: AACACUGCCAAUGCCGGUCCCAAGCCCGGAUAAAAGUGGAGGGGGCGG

- Variants of: B1
- experiment-notes: self-cleavage, relative activity (ratio to wild type); higher = more cleavage; co-transcriptional
So I've got a bunch of variants here, and I need their self-cleavage values.

Quick note, self-cleavage for U31G G39U landed at 0.203

Quick note, self-cleavage for C15G G24C landed at 0.0723

Quick note, self-cleavage for A22U A34U landed at 0.495

Quick note, self-cleavage for C26U G44U landed at 0.249

Quick note, self-cleavage for A2C G7U landed at 0.0484

Quick note, self-cleavage for G13A G29U landed at 0.598

Quick note, self-cleavage for G13C G28C landed at 0.31

Quick note, self-cleavage for C20A G48C landed at 0.169

Quick note, self-cleavage for A32G G45U landed at 0.668

Quick note, self-cleavage for G44C G45U landed at 0.483

Quick note, self-cleavage for U18A A40G landed at 0.0784

Quick note, self-cleavage for A10C C46U landed at 0.839

Quick note, self-cleavage for G29A G38U landed at 0.634

Quick note, self-cleavage for C25A U31A landed at 0.0924

Quick note, self-cleavage for U6C G29C landed at 0.173

Quick note, self-cleavage for C8G G16C landed at 0.0753

Quick note, self-cleavage for A10C A35C landed at 1.08

Quick note, self-cleavage for G13C C15G landed at 0.0922

Quick note, self-cleavage for C9A A32U landed at 0.558

Quick note, self-cleavage for A11U G42C landed at 0.623

Quick note, self-cleavage for U12A U31A landed at 0.679

Quick note, self-cleavage for A1C C14U landed at 0.19

Quick note, self-cleavage for A4C G42U landed at 0.0422

Quick note, self-cleavage for G17A C46U landed at 0.774

Quick note, self-cleavage for A1G A40G landed at 0.227

Quick note, self-cleavage for U18C A32G landed at 0.664

Quick note, self-cleavage for U12G G41A landed at 0.658

Quick note, self-cleavage for C14U A33C landed at 0.97

Quick note, self-cleavage for C14U A40U landed at 0.191

Quick note, self-cleavage for C5U U6C landed at 0.691

Quick note, self-cleavage for G7A A30C landed at 0.108

Quick note, self-cleavage for C3U G48A landed at 0.381

Quick note, self-cleavage for C15A G36C landed at 0.0919

Quick note, self-cleavage for A4G A22U landed at 0.69

Quick note, self-cleavage for C20U G43U landed at 0.146

Quick note, self-cleavage for A22C A34U landed at 0.872
